- test-description: LogD octanol/PBS pH 7.4
- Format: physicochemical
- conditions-used: octanol/PBS

smiles	logD at 2 h
O=C(O)c1cccc(-c2ccc(OCc3ccc4ccccc4n3)cc2)c1	2
